Reference source for all entries: ChEMBL document CHEMBL4433233

experiment: Cytotoxicity against human MCF7 cells in low folate medium assessed as metabolic activity at 50 uM incubated for 72 hrs by MTS assay relative to control; assay type: ADME, cell-based; settings: MCF7 cells, read-out: Activity
measureName: viability at 72 h, 50 µM (%)
I only need the number, in %, no unit after it.

Exam item: Please report the recorded viability at 72 h, 50 µM for Nc1nc(O)c2nc(CNc3ccc(C(=O)N[C@@H](CCC(=O)NCCNC(=O)CCSSCCC(=O)NCCCNC(=O)c4ccc(CN(Cc5ccccn5)C(c5ccccn5)c5ccccn5)nc4)C(=O)O)cc3)cnc2n1 .
Marked response: 76.4

* * *

assay: Cytotoxicity against human MCF7 cells in low folate medium assessed as metabolic activity at 30 uM incubated for 72 hrs by MTS assay relative to control; assay type: ADME, cell-based; conditions: MCF7 cells, read-out: Activity
measureName: viability at 72 h, 30 µM (%)
Provide the reading as a plain figure in %.

Exam item: Looking for the measured viability at 72 h, 30 µM of Nc1nc(O)c2nc(CNc3ccc(C(=O)N[C@@H](CCC(=O)NCCNC(=O)CCSSCCC(=O)NCCCNC(=O)c4ccc(CN(Cc5ccccn5)C(c5ccccn5)c5ccccn5)nc4)C(=O)O)cc3)cnc2n1 , can you help?
Marked response: 78.9
